# TESTED SYSTEM: Phosphodiesterase 4 and 5 (PDE4 and PDE5) (Homo sapiens) (UniProt O76074+P27815+Q08499+Q07343+Q08493)
# ASSAY METHOD TEXT: Relative inhibition of PDE4 and PDE5
# Format: protein assay

| TEST SMILES | Selectivity |
| --- | --- |
| CCN1C(=O)c2c(nc(C(N)=O)n2Cc2ccc(O)c(Cl)c2)N2C[C@@H](Cc3ccccc3)N=C12 | 1730 |
| CCN1C(=O)c2c(nc(OC)n2Cc2ccc(OC)c(Cl)c2)N2C[C@@H](Cc3ccccc3)N=C12 | 394 |
| CCN1C(=O)c2c(nc(OC)n2Cc2ccc(O)c(Br)c2)N2C[C@@H](Cc3ccccc3)N=C12 | 3770 |
| CCN1C(=O)c2c(nc(OCc3ccccc3)n2Cc2ccc(O)c(Cl)c2)N2C[C@@H](Cc3ccccc3)N=C12 | 2170 |
| CCN1C(=O)c2c(nc(OC)n2Cc2ccc(OC)c(C#N)c2)N2C[C@@H](Cc3ccccc3)N=C12 | 464 |
| CCN1C(=O)c2c(nc(OC)n2Cc2ccc(OC)c(Br)c2)N2C[C@@H](Cc3ccccc3)N=C12 | 418 |

Measured values drawn from ChEMBL document CHEMBL1147608 for this set.
